# tgt: Glucocorticoid receptor (Homo sapiens, UniProt P04150)
# Sequence (P04150 whole entry): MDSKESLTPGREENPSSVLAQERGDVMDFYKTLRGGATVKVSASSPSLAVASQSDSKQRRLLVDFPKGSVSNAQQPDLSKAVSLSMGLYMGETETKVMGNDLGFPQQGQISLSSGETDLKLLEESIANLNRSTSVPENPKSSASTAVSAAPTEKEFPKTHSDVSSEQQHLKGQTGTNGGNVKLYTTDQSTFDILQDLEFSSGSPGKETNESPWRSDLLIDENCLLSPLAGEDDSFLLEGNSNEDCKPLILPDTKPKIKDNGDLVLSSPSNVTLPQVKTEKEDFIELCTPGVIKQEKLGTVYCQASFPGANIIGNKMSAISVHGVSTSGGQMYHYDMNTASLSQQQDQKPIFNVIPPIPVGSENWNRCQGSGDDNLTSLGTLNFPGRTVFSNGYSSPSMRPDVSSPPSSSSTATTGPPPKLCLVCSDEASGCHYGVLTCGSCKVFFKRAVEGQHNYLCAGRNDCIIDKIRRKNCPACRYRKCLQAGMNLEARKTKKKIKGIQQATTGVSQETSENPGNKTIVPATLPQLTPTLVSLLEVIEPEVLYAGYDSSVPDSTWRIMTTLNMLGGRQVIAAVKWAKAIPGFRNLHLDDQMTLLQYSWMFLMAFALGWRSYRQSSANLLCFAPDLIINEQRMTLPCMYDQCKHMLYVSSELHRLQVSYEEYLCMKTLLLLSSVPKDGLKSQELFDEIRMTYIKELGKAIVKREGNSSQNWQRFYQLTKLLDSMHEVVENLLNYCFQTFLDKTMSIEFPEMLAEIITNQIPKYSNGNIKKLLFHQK
# assay name: Antagonist activity at GR in SW1353/MMTV5 cells assessed as inhibition of dexamethasone-induced luciferase expression
# Format: functional, cell-based
pKi: −log10 of the molar value.
Listing of entries alongside the reported pKi.
readout: pKi

>>> print(df.to_string())
                                   molecule  censor_symbol  measured_value
0  O=S(=O)(c1ccc(F)cc1)N1CCC2=Cc3c(cnn3-c3ccc(F)cc3)C[C@]2(CO)C1              =            6.74
1  C[C@]12Cc3cnn(-c4ccc(F)cc4)c3C=C1CCN(S(=O)(=O)c1ccc(N)cc1)C2              <            6.00
2  CN(C)C[C@]12Cc3cnn(-c4ccc(F)cc4)c3C=C1CCN(S(=O)(=O)c1ccc(F)cc1)C2              =            7.54
3  CCNC[C@]12Cc3cnn(-c4ccc(F)cc4)c3C=C1CCN(S(=O)(=O)c1ccc(C(C)(C)C)cc1)C2              =            7.80
4  CN1CCN(C[C@]23Cc4cnn(-c5ccc(F)cc5)c4C=C2CCN(S(=O)(=O)c2ccc(C(C)(C)C)cc2)C3)CC1              =            7.07
5  COc1ccc(S(=O)(=O)N2CCC3=Cc4c(cnn4-c4ccc(F)cc4)C[C@]3(C)C2)cc1              =            6.75
6  CCCOC[C@]12Cc3cnn(-c4ccc(F)cc4)c3C=C1CCN(S(=O)(=O)c1ccc(C(F)(F)F)cc1)C2              =            8.05
7  O=S(=O)(c1ccc(F)cc1)N1CCC2=Cc3c(cnn3-c3ccc(F)cc3)CC2(Cc2ccc(F)cc2)C1 (racemic)              =            7.59
